# System: CAKI-1 renal
# Protocol Description: NCI-60 one-dose screen, 48 h (100 = growth as untreated, 0 = no growth, -100 = all killed)
# Run Parameters: 10 µM
# Procedure: Growth inhibition of the CAKI-1 human tumor cell line is measured as a screen for anti-cancer activity. Cells are grown in 96 well plates and exposed to the test compound for 48 hours. Compounds are tested at a single concentration, which is 10^-5 M for most compounds. The reported endpoint is percent growth (GI% or GIPRCNT), where numbers from 0 - 100% represent growth inhibition, and numbers from -100% - 0 represent cell death. For example, a value of 40 represents 60% growth inhibition. […]
About 83,000 compounds went through this panel and 20% of them were active in at least one assay; those are over-represented in the sample as a whole.
For each record, write down the corresponding growth.
Numbers only, in %.

For each of the compounds below, note its growth.
1. Brc1cnc2ccccc2c1
2. Nc1ncnc2c1nc(N)n2C1OC(CO)C(O)C1O (stereo not given)
3. CCN(CC)C(=O)/C=C(/C)c1ccccc1

1. 97.7
2. -28.6
3. 100

For each of the compounds below, note its growth.
1. CC(C(=O)O)(C1CCCCC1)C1(O)CCCCC1 (stereo not given)
2. CC(C)(C)n1nc(C2CC2)c(Br)c1NC(=O)c1ccccc1F
3. CCCCC(=O)c1ccc(OC)cc1

96.7
80.8
99.2

====

# Tested on: NCI-H23 lung
# Protocol Description: NCI-60 one-dose screen, 48 h (100 = growth as untreated, 0 = no growth, -100 = all killed)
# Run Parameters: 10 µM
This is part of a sample that, as a whole, favours compounds with a hit. Of some 83,000 tested, about 20% had one in any assay.
For each record, write down the corresponding growth.
Numbers only, in %.

For each of the compounds below, note its growth.
1. O=C(/C=C/C(=O)c1ccccc1)c1ccccc1
2. CCCCC1(CC)COC(CCC)OC1 (centres undefined)
3. O=[N+]([O-])c1cccc2nsnc12
4. CC(C)=NNc1ccc([N+](=O)[O-])cc1[N+](=O)[O-]
5. O=[N+]([O-])c1ccc(/C=C/C=C/c2ccccc2)c(Cl)c1
6. CCC/C=C(\C)C(C)(C#N)C(=O)OCC (centres undefined)

[99, 111, 108, 95.5, 89.8, 116]

For each of the compounds below, note its growth.
1. Cc1ccc(CCCC(=O)O)c(C)c1
2. Cc1cc(=O)cc(C)n1-c1ccccc1
3. CCOC(=O)CCCC(=O)OCC
4. CCCCCCCCCCC1CO1 (centres undefined)
5. CC(=O)Nc1ccc(NC(C)=O)c2c1C(=O)c1ccccc1C2=O
6. C=CCCCCCCCCCOC(C)=O
7. CCOc1ccc(/C=N/N=C(N)N)cc1OCC

103
96.5
97.9
106
89.5
100
92

Which growth reading was recorded for the compound Cc1ccc(C(O)C2CC2)cc1 (centres undefined) ?
103

====

# Tested on: MALME-3M melanoma
# Protocol Description: NCI-60 one-dose screen, 48 h (100 = growth as untreated, 0 = no growth, -100 = all killed)
# Run Parameters: 10 µM
This is part of a sample that, as a whole, favours compounds with a hit. Of some 83,000 tested, about 20% had one in any assay.
For each record, write down the corresponding growth.
Numbers only, in %.

Here's what some known entries look like.
- NCCCN: 95.5
- CC(C)C1CCCCC1O (stereo not drawn): 117
- O=C(O)[C@@H]1[C@H]2C[C@H]3c4[nH]c5ccccc5c4CCN3C[C@@H]2CC[C@@H]1O: 66.1
- Cc1cc(N)c(S(=O)(=O)O)c(N)c1: 118
- CC(=O)Oc1ccc(Br)cc1C(=O)O: 98.2

For each of the molecules below, note its growth.
1. CC(=O)OC1CC2C(C)(C)OC3CC(=O)OCC32C2CCC3(C)C(=CCC3c3ccoc3)C12C (stereo not drawn)
2. O=C(CC(=O)c1ccccc1O)c1ccccc1
3. O=C(O)/C=C/c1ccc2c(c1)CCC2
4. CC1CC(O)C2C3(C)CCCC2(COC3=O)C12CCC1(CCOC1=O)O2 (stereo not drawn)

85.2
115
121
116

For each of the molecules below, note its growth.
1. CCN=c1cc2sc3cc(NCC)c(C)cc3nc-2cc1C
2. CN(C)c1nc2c([nH]1)c(=O)n(C)c(=O)n2C
3. N#CCCc1ccc(O)cc1
4. O=S(=O)(Cc1ccccc1)c1ccccc1

1. -30.9
2. 101
3. 108
4. 106
